B1: Serine/threonine-protein kinase A-Raf, residues 21 to 89; numbered along this chain, P10398 (parent)
chain: VKVYLPNKQRTVVTVRDGMSVYDSLDKALKVRGLNQDCCVVYRLIKGRKTVTAWDTAIAPLDGEELIVE

# Variants of: B1
# TEST_NAME: abundance fitness (aPCA) (normalised: wild type 0, dead -1); higher = more abundant; growth selection in yeast, the domain comes from the species named
# TEST_CONTEXT: Homo sapiens
PARAMETER: abundance fitness
Lab note: write the figure by itself, no unit.

Worked examples follow.
[[record]]
mutant_code = "V21I"
readout_value = -0.602

[[record]]
mutant_code = "Y22K"
readout_value = 0.012

[[record]]
mutant_code = "E65Y"
readout_value = -0.305

[[record]]
mutant_code = "C39A"
readout_value = -0.504

[[record]]
mutant_code = "D26E"
readout_value = 0.04


What value of measured abundance fitness is listed for Q36A ? -0.043

Moving on to R43Q -0.102

Also D37L ? -0.567

Another: V40C -0.087

Origin of values: the Human Domainome abundance scans (Beltran et al. 2025)
